Tested on: Candida albicans
Assay: Antifungal activity against Candida albicans ATCC 10231 assessed as inhibition of fungal growth at 12.5 uM
Format: functional
Settings: read-out: GI
property name: inhibition of growth at 12.5 µM (%)
Write down the numeric answer in % and omit the unit.

CC[C@H](C)[C@H](NC(=O)[C@H](CCCCN)NC(=O)[C@@H](NC(=O)[C@H](CCC(N)=O)NC(=O)[C@@H](N)CCCNC(=N)N)[C@@H](C)CC)C(=O)N[C@@H](Cc1c[nH]c2ccccc12)C(=O)N[C@@H](Cc1ccccc1)C(=O)N[C@@H](CCC(N)=O)C(=O)N[C@@H](CC(N)=O)C(=O)N[C@@H](CCCNC(=N)N)C(=O)N[C@@H](CCCNC(=N)N)C(=O)N[C@@H](CCSC)C(=O)N[C@@H](CCCCN)C(=O)N[C@@H](Cc1c[nH]c2ccccc12)C(=O)N[C@@H](CCCCN)C(=O)N[C@@H](CCCCN)C(N)=O ... 4
CC[C@H](C)[C@H](NC(=O)[C@H](CCCCN)NC(=O)[C@@H]1CCCN1C(=O)[C@H](CCC(N)=O)NC(=O)[C@@H](N)CCCNC(=N)N)C(=O)N[C@H](Cc1c[nH]c2ccccc12)C(=O)N[C@@H](Cc1ccccc1)C(=O)N1CCC[C@H]1C(=O)N[C@@H](CC(N)=O)C(=O)N[C@@H](CCCNC(=N)N)C(=O)N[C@@H](CCCNC(=N)N)C(=O)N[C@@H](CCCCN)C(=O)N1CCC[C@H]1C(=O)N[C@@H](Cc1c[nH]c2ccccc12)C(=O)N[C@@H](CCCCN)C(=O)N[C@@H](CCCCN)C(N)=O ... 6.1
C[C@@H]1[C@H](O)[C@@H](C)/C=C/C=C/C=C/C=C/C=C/C=C/C=C/[C@H](O[C@@H]2O[C@H](C)[C@@H](O)[C@H](N)[C@@H]2O)C[C@@H]2O[C@](O)(C[C@@H](O)C[C@@H](O)[C@H](O)CC[C@@H](O)C[C@@H](O)CC(=O)O[C@H]1C)C[C@H](O)[C@H]2C(=O)O ... 100

Alright, here's another molecule for you.
**Q:** Please list inhibition of growth at 12.5 µM recorded for the molecule CC(=O)N1CCN(c2ccc(OCC3COC(Cn4ccnc4)(c4ccc(Cl)cc4Cl)O3)cc2)CC1 (centres undefined)
**A:** 100
